The following molecules are listed with their measured T/C values.
- Tested on: L1210 leukemia ip in BDF1 mice, survival T/C
- experiment: NCI In Vivo Anticancer Drug Screen. Data for tumor model L1210 Leukemia (intraperitoneal) in B6D2F1 (BDF1) mice
- details: endpoint: mean survival time; dose: 100.0 mg/kg/injection; schedule: Q04DX003 (ip); vehicle: gum acacia; higher = longer survival
Inconclusive results and toxic doses are left out.

{"molecule": "Cc1cc2nc(SCC(=O)O)[nH]c2cc1C", "T/C": "99 % of control"}
{"molecule": "COc1ccc(OC)c(/C=C/[N+](=O)[O-])c1", "T/C": "97 % of control"}
{"molecule": "Cc1cccc(C2NC(=S)N3C(c4cccc(C)c4)NC(=S)N23)c1 (centres undefined)", "T/C": "88 % of control"}
{"molecule": "Cc1cc(C(=O)CCC(=O)O)c(C)s1", "T/C": "102 % of control"}

* * *

- System: L1210 leukemia ip in BDF1 mice, survival T/C
- experiment: NCI In Vivo Anticancer Drug Screen. Data for tumor model L1210 Leukemia (intraperitoneal) in B6D2F1 (BDF1) mice
- details: endpoint: mean survival time; dose: 100.0 mg/kg/injection; schedule: Q01DX001 (ip); vehicle: other; higher = longer survival
Toxic doses and inconclusive results are not listed.

{"compound": "COC(=O)c1cc(=O)c2cc(C(C)=O)ccc2[nH]1", "T/C": "95 % of control"}
{"compound": "CC1CCC2C(C)C3C(CC4C5CCC6CC(O)CCC6(C)C5CCC43C)N2C1 (stereo not given)", "T/C": "88 % of control"}
{"compound": "CC(=O)C(Cl)C(C)=O.CC(=O)CC(C)=O.CC(=O)CC(C)=O.[Rh]", "T/C": "102 % of control"}
{"compound": "Oc1c(Cl)cc(Cl)cc1CNCc1ccccc1", "T/C": "93 % of control"}
{"compound": "O=C(N/N=C\\c1ccc(O)cc1O)c1ccco1", "T/C": "90 % of control"}
{"compound": "CC(C)CC(NC(=O)OC(C)(C)C)C(=O)O (stereo not given)", "T/C": "104 % of control"}
{"compound": "CCCCNC(=O)c1ccccc1-c1ccccc1C(=O)NCCCC", "T/C": "105 % of control"}
{"compound": "COc1cc(CCN2CCN(c3cc(C)ccc3Cl)CC2)cc(OC)c1OC", "T/C": "93 % of control"}
{"compound": "CCOC(=O)c1[nH]cnc1/N=N/N(C1CCCCC1)C1CCCCC1", "T/C": "97 % of control"}
{"compound": "CCOC(=O)Sc1ccccc1", "T/C": "102 % of control"}
{"compound": "OCn1c2ccccc2c2ccccc21", "T/C": "98 % of control"}
{"compound": "O=C(O)CCC(=O)NCCN(CCNC(=O)CCC(=O)O)C(=O)CCC(=O)O", "T/C": "105 % of control"}
{"compound": "C/C(=N/O)c1ccc[nH]1", "T/C": "103 % of control"}
{"compound": "CN(C)/N=N/c1nc[nH]c1C(=O)N/N=C/c1ccc(N(CCCl)CCCl)cc1", "T/C": "100 % of control"}
{"compound": "CC(=O)C(Br)C(C)=O.CC(=O)C(Br)C(C)=O.CC(=O)C(Br)C(C)=O.[Rh]", "T/C": "96 % of control"}

* * *

// values below are reported T/C
- Tested on: L1210 leukemia ip in BDF1 mice, survival T/C
- experiment: NCI In Vivo Anticancer Drug Screen. Data for tumor model L1210 Leukemia (intraperitoneal) in B6D2F1 (BDF1) mice
- details: endpoint: mean survival time; dose: 400.0 mg/kg/injection; schedule: Q04DX003 (ip); vehicle: Klucel (hydroxypropylcellulose) (HPC); higher = longer survival
- Protocol: The antitumor activity of compounds was measured in mice bearing transplantable tumors. Survival or tumor size were measured and the results are expressed as the measurement made in the treated group (T) divided by the measurement made in the vehicle treated control group (C). The tumor model used in this assay is L1210 Leukemia (intraperitoneal) in B6D2F1 (BDF1) mice
Toxic doses and inconclusive results are not listed.

{"compound": "Clc1ccc2noc(-c3ccccc3)c2c1", "T/C": "90 % of control"}
{"compound": "COc1ccc(NC(=O)c2cccc(C(=O)Nc3ccc(OC)cc3)c2)cc1", "T/C": "93 % of control"}
{"compound": "O=S1(=O)C(c2ccccc2)=Cc2cccn2-c2ccccc21", "T/C": "98 % of control"}
{"compound": "Cc1cc(C)c(S(=O)(=O)C(=O)/C=N/N)c(C)c1", "T/C": "96 % of control"}
{"compound": "CC(C)=CCc1c2c(c3occ(-c4ccc(O)cc4)c(=O)c3c1O)C=CC(C)(C)O2", "T/C": "88 % of control"}
{"compound": "O=[N+]([O-])c1cc(NS(=O)(=O)c2ccccc2)ccc1NS(=O)(=O)c1ccccc1", "T/C": "94 % of control"}
{"compound": "COC(=O)c1cc(Cl)c(C(=O)OC)cc1Cl", "T/C": "102 % of control"}
{"compound": "c1ccc2cc(-c3csc4ccccc34)ccc2c1", "T/C": "100 % of control"}
{"compound": "CCCCN(CCCC)CC(O)c1cccc2c1cc(Cl)c1ccccc12 (configuration not stated)", "T/C": "91 % of control"}
{"compound": "CCOC(=O)Nc1ccc([N+](=O)[O-])cc1", "T/C": "89 % of control"}
{"compound": "CN(C)C(=S)Oc1ccc(C(F)(F)F)cc1", "T/C": "101 % of control"}
{"compound": "CCCOc1ccc(C=Nc2ccc(C)cc2)cc1", "T/C": "117 % of control"}

* * *

- Tested on: L1210 leukemia ip in BDF1 mice, survival T/C
- experiment: NCI In Vivo Anticancer Drug Screen. Data for tumor model L1210 Leukemia (intraperitoneal) in B6D2F1 (BDF1) mice
- details: endpoint: mean survival time; dose: 400.0 mg/kg/injection; schedule: Q01DX009 (ip); vehicle: saline; higher = longer survival
Inconclusive results and toxic doses are left out.
Quick list: T/C per entry.

{"sample smiles": "Cc1cc(N)on1", "T/C": "88 % of control"}
{"sample smiles": "C[N+]12CN3CN(CN(C3)C1)C2", "T/C": "105 % of control"}
{"sample smiles": "CCOc1ccc(NC(=O)c2cccc(Cl)c2)cc1", "T/C": "96 % of control"}
{"sample smiles": "CC(=O)Oc1ccc(OC(C)=O)c2c1CC(C)=C(C)C2", "T/C": "92 % of control"}
{"sample smiles": "NC(=O)C(N)=O", "T/C": "101 % of control"}

* * *

# key: entry, value: T/C
- Test system: L1210 leukemia ip in BDF1 mice, survival T/C
- experiment: NCI In Vivo Anticancer Drug Screen. Data for tumor model L1210 Leukemia (intraperitoneal) in B6D2F1 (BDF1) mice
- details: endpoint: mean survival time; dose: 25.0 mg/kg/injection; schedule: Q04DX002 (ip); vehicle: Klucel (hydroxypropylcellulose) (HPC); higher = longer survival
Toxic doses and inconclusive results are not listed.

{"compound": "O=C1C=CC(=O)N1C12CC3CC(CC(C3)C1)C2", "system under test": "L1210 leukemia ip in BDF1 mice, survival T/C", "T/C": "105 % of control"}
{"compound": "NC(CCl)=NCC1CCCC1", "system under test": "L1210 leukemia ip in BDF1 mice, survival T/C", "T/C": "96 % of control"}
{"compound": "Cc1cccc(CN=C(N)CSS(=O)(=O)O)n1", "system under test": "L1210 leukemia ip in BDF1 mice, survival T/C", "T/C": "92 % of control"}
{"compound": "CC(C)(C)C1CCC(N=C(N)CSS(=O)(=O)O)CC1 (stereo not given)", "system under test": "L1210 leukemia ip in BDF1 mice, survival T/C", "T/C": "95 % of control"}
{"compound": "C1=Nc2cc3c(cc2Cn2cccc21)OCO3", "system under test": "L1210 leukemia ip in BDF1 mice, survival T/C", "T/C": "86 % of control"}

* * *

- System: L1210 leukemia ip in BDF1 mice, survival T/C
- experiment: NCI In Vivo Anticancer Drug Screen. Data for tumor model L1210 Leukemia (intraperitoneal) in B6D2F1 (BDF1) mice
- details: endpoint: mean survival time; dose: 100.0 mg/kg/injection; schedule: Q01DX001 (ip); vehicle: carboxymethylcellulose (CMC); higher = longer survival
Toxic doses and inconclusive results are not listed.
experimental endpoint: T/C

{"molecule": "CCOC(=O)CC(CC(=O)OCC)NC(=O)c1ccc(N(C)Cc2ccccc2)cc1", "experimental result": "107 % of control"}
{"molecule": "CC(C)(O)c1cnnn1CCC[CH2][Pb]([c]1ccccc1)([c]1ccccc1)[c]1ccccc1", "experimental result": "105 % of control"}
{"molecule": "NNc1c(Cl)c(F)c(Cl)c(F)c1Cl", "experimental result": "104 % of control"}
{"molecule": "Cc1ccc(N=Nc2c(O)ccc3ccccc23)cc1", "experimental result": "91 % of control"}
{"molecule": "Oc1ccccc1C=Nc1cnc2ccccc2c1", "experimental result": "95 % of control"}
{"molecule": "Cc1cc(Cl)ccc1OC(=O)Nc1ccc(Cl)cc1", "experimental result": "103 % of control"}
{"molecule": "CCOC(=O)C(=O)c1cn(C)c2ccccc12", "experimental result": "106 % of control"}
{"molecule": "CCC(O)(COC(N)=O)c1ccccc1 (stereo unspecified)", "experimental result": "97 % of control"}
{"molecule": "O=C1c2cc([N+](=O)[O-])ccc2SC2C=CSC12 (stereo unspecified)", "experimental result": "94 % of control"}
{"molecule": "NNS(=O)(=O)c1ccccc1", "experimental result": "92 % of control"}
{"molecule": "N#CC(C#N)=Cc1cccnc1", "experimental result": "98 % of control"}

Values from PubChem BioAssay AID248
